Experiment: NCI Yeast Anticancer Drug Screen. Data for the mec2-1 strain (AID 157)
Details: S. cerevisiae mec2-1 strain, at 50.0 µM, stronger effect = higher value
The panel holds about 79,000 compounds, 15% with a hit somewhere; the sample as a whole holds those more often. The source made the active and inactive calls. Rule as the data show it: active = growth inhibition above about 70%; inactive = the rest.
READOUT_NAME: growth inhibition

In the examples that follow, each entry is paired with its recorded growth inhibition.
[in] For COCCN1C(=O)C2c3[nH]c4ccccc4c3C3CCC(C(C)(C)C)CC3C2C1=O (stereo not given) , what is its reported growth inhibition?
[out] 96% (active)

[in] Field request: growth inhibition | item: CCOC(=O)c1c(Cl)c(CC)c(N=[N+]=[N-])n2c1nc1ccccc12
[out] 56.9% (inactive)

[in] What value of growth inhibition has been reported for the following compound? CC1(C)N=C(N)N=C(N)N1c1cccc(CCCCC(=O)CCl)c1
[out] 95% (active)

---
[in] May I ask what growth inhibition has been recorded for O=C(Nc1ccccc1)c1ccc(Cl)cc1Cl ?
[out] 1.85% (inactive)

[in] Please give the measured growth inhibition for this compound: O=C(NCCCCCNC(=O)C12CC3CC(CC(C3)C1)C2)C12CC3CC(CC(C3)C1)C2
[out] 27.8% (inactive)

Value source: PubChem BioAssay (NCI)
